System: A549 NSCLC
TEST METHOD NOTES: NCI tumour cell line growth inhibition, 48 h
VALUE KIND: TGI

Ask: Supply recorded TGI for Cc1ccc([N+](=O)[O-])cc1NC(=O)C(=O)Cc1occc(=O)c1O here.
Reply: > 100 µM

Ask: Supply recorded TGI for CCc1ccc(Nc2cc(=O)[nH]c(SCc3ccccc3)n2)cc1 here.
Reply: > 100 µM

Ask: Supply recorded TGI for O=C(O)C(Cc1c[nH]c2ccccc12)N=Cc1nc(-c2ccccc2)oc1O (configuration not stated) here.
Reply: > 100 µM

Ask: Supply recorded TGI for NCCNc1nc(N2CCCC2)c2nc(Cl)c(NCc3ccccc3)nc2n1 here.
Reply: 3.36 µM

Ask: Supply recorded TGI for O=c1[nH]c(-c2cccc(F)c2)nc2ccccc12 here.
Reply: > 100 µM

Ask: Supply recorded TGI for C=C1C(=O)O[C@H]2[C@H]1CC/C(Cn1cc(Cn3ccc4ccccc43)nn1)=C\CC[C@@]1(C)O[C@@H]21 here.
Reply: 27.4 µM

Ask: Supply recorded TGI for CNNCc1ccc(C(=O)NC(C)C)cc1 here.
Reply: > 500 µM

Ask: Supply recorded TGI for O=C1C(=O)c2ccccc2-c2ccccc21 here.
Reply: 6.54 µM

Ask: Supply recorded TGI for c1cc(OCCN2CCCCCC2)ccc1CNc1ccc2nc(CCC3CCCCC3)[nH]c2c1 here.
Reply: 11 µM

Ask: Supply recorded TGI for CCOC(=O)C1CCn2c(nc3c2c(=O)n(C)c(=O)n3C)S1 (configuration not stated) here.
Reply: > 100 µM

Ask: Supply recorded TGI for CC#CS(=O)(=O)c1ccccc1 here.
Reply: 31.4 µM

Ask: Supply recorded TGI for O=C1c2ccccc2-c2nc3ccc(O)cc3n21 here.
Reply: > 100 µM

Ask: Supply recorded TGI for O=C1OCC2(CO1)CC1C=CC2C1 (configuration not stated) here.
Reply: > 100 µM

Ask: Supply recorded TGI for NCC#CCNCCCN1CC1 here.
Reply: > 100 µM

Ask: Supply recorded TGI for CC1(C)OC(C(N)=O)=C(C(N)=O)O1 here.
Reply: > 100 µM

Ask: Supply recorded TGI for COC(=O)C(=O)c1c2ccccc2n2ccc3c4ccccc4[nH]c3c12 here.
Reply: > 10 µM

Ask: Supply recorded TGI for COc1cc(/C=C/C(=O)c2ccc(Nc3ncnc4ccccc34)cc2)cc(OC)c1 here.
Reply: 14.4 µM

Reference for the values: PubChem BioAssay (NCI)
